For each of the compounds below, state its MIC80.
System: Candida albicans
Test: Anti-fungal activity against fluconazole-resistant Candida albicans isolate 100 by microbroth dilution method
Format: functional

Sample answers from the record:
{"Smiles": "O=C(CCc1ccc2c(c1)OCO2)NCc1ccc(-c2ccc(F)cc2F)cc1", "Result": "> 64 µg/mL"}
{"Smiles": "O=C(CCc1ccc2c(c1)OCO2)NCc1ccc(-c2ccco2)cc1", "Result": "> 64 µg/mL"}
{"Smiles": "OC(Cn1cncn1)(Cn1cncn1)c1ccc(F)cc1F", "Result": "128 µg/mL"}

Considering `O=C(CCc1ccc2c(c1)OCO2)NCc1ccc(-c2ccc(Cl)cc2)cc1` , its MIC80 with Candida albicans was recorded as > 64 µg/mL

* * *

Test system: Candida albicans
Experiment: Potentiation of fluconazole-induced anti-fungal activity against fluconazole-resistant Candida albicans isolate 100 assessed as fluconazole MIC80 at 2 ug/ml by checkerboard microdilution assay
Type: functional
Endpoint: MIC80

Sample answers from the record:
{"Compound": "O=C(CCc1ccc2c(c1)OCO2)NCc1ccc(-c2ccc(F)cc2)cc1", "Result": "0.125 µg/mL"}
{"Compound": "Cc1ccc(-c2ccc(CNC(=O)CCc3ccc4c(c3)OCO4)cc2)cc1", "Result": "1 µg/mL"}
{"Compound": "COc1ccc2cc3[n+](cc2c1OC)CCc1cc2c(cc1-3)OCO2 [BERBERINE]", "Result": "1 µg/mL"}

Now consider the entry below.
`O=C(CCc1ccc2c(c1)OCO2)NCc1ccc(-c2ccccc2F)cc1` has a reported MIC80 of 0.125 µg/mL

* * *

Test system: Candida albicans
Experiment: Synergistic anti-fungal activity against fluconazole-resistant Candida albicans isolate 103 in presence of fluconazole by two-fold dilution method
Assay type: functional
Endpoint: MIC80 (µg/mL)
Answers are plain numbers, in µg/mL.

{"Smiles": "O=C(CCc1ccc2c(c1)OCO2)NCc1ccc(-c2ccccc2F)cc1", "Result": 0.031}
{"Smiles": "O=C(CCc1ccc2c(c1)OCO2)NCc1ccc(-c2cccs2)cc1", "Result": 0.125}

Now consider the entry below.
Considering `O=C(Cc1ccccc1F)NCCc1ccc2c(c1)OCO2` , its MIC80 with Candida albicans was recorded as 1

* * *

System: Candida albicans
Assay: Synergistic anti-fungal activity against fluconazole-resistant Candida albicans isolate 103 in presence of fluconazole by two-fold dilution method
Type: functional
Endpoint: MIC80 (mg/L)
Answers are plain numbers, in mg/L.

{"Smiles": "O=C(CCc1ccc2c(c1)OCO2)NCc1ccc(Br)cc1", "Unit annotation": "mg/L", "MIC80": 1}

Return reported MIC80 values for all items listed beneath this line.
1. COc1ccc2cc3[n+](cc2c1OC)CCc1cc2c(cc1-3)OCO2
2. Cc1cccc(-c2ccc(CNC(=O)CCc3ccc4c(c3)OCO4)cc2)c1
3. O=C(CCc1ccc2c(c1)OCO2)NCc1cccc(-c2ccc(F)cc2)c1
4. O=C(CCc1ccc2c(c1)OCO2)NCc1cccc(F)c1
5. O=C(CCc1ccc2c(c1)OCO2)NCc1ccccc1Br

1
1
1
1
1

* * *

System: Candida albicans
Experiment: Potentiation of fluconazole-induced anti-fungal activity against fluconazole-resistant Candida albicans isolate 100 by two-fold dilution method
Format: functional
We use 0.07 as the dividing line for fractional inhibitory concentration index (FICI): on or above the line is Yes, below is No.

Threshold query (fractional inhibitory concentration index (FICI) >= 0.07) on `O=C(CCc1ccc2c(c1)OCO2)NCc1cccc(Br)c1`
Yes

Threshold query (fractional inhibitory concentration index (FICI) >= 0.07) on `O=C(CCc1ccc2c(c1)OCO2)NCc1cccc(-c2ccc(F)cc2)c1`
No

Threshold query (fractional inhibitory concentration index (FICI) >= 0.07) on `O=C(CCc1ccc2c(c1)OCO2)NCc1ccc(-c2ccc(F)cc2F)cc1`
No

Threshold query (fractional inhibitory concentration index (FICI) >= 0.07) on `Cc1ccccc1CNC(=O)CCc1ccc2c(c1)OCO2`
No

Threshold query (fractional inhibitory concentration index (FICI) >= 0.07) on `O=C(CCc1ccc2c(c1)OCO2)NCc1ccc(-c2ccc(F)cc2)cc1`
No

Threshold query (fractional inhibitory concentration index (FICI) >= 0.07) on `COc1ccc2cc3[n+](cc2c1OC)CCc1cc2c(cc1-3)OCO2`
Yes

Threshold query (fractional inhibitory concentration index (FICI) >= 0.07) on `O=C(CCc1ccc2c(c1)OCO2)NCc1ccc(Br)cc1`
No

Threshold query (fractional inhibitory concentration index (FICI) >= 0.07) on `O=C(CCc1ccc2c(c1)OCO2)NCc1ccc(-c2ccccc2F)cc1`
No

* * *

For each of the compounds below, state its fractional inhibitory concentration index (FICI).
Test system: Candida albicans
Experiment: Potentiation of fluconazole-induced anti-fungal activity against fluconazole-resistant Candida albicans isolate 100 by two-fold dilution method
Assay type: functional

Sample answers from the record:
{"Smiles": "O=C(Cc1ccccc1F)NCCc1ccc2c(c1)OCO2", "Result": 0.07}
{"Smiles": "O=C(CCc1ccc2c(c1)OCO2)NCc1ccc(-c2cccs2)cc1", "Result": 0.063}
{"Smiles": "O=C(CCc1ccc2c(c1)OCO2)NCc1ccc(-c2ccc(Cl)cc2)cc1", "Result": 0.066}

Now consider the entry below.
Considering `N#Cc1ccc(-c2ccc(CNC(=O)CCc3ccc4c(c3)OCO4)cc2)cc1` , its fractional inhibitory concentration index (FICI) with Candida albicans was recorded as 0.125

Measured values drawn from ChEMBL document CHEMBL4043214 for this set.
